assay: AUC (0 to t) in ICR mouse at 10 mg/kg, po measured upto 24 hrs by LC-MS/MS analysis; type: ADME, organism-based; set-up: dose 10 mg/kg, time < 24 hrs, route po; conditions: in vivo
quantity_kind: AUC(0-t) at 24 h (ng·h/mL)
Quick reminder: number only, in ng·h/mL, skip the unit.

query_smiles: Cc1ccc(-c2cc(=O)oc3cc(O[C@H](C)C(=O)N4CC5CCC(C4)N5C)ccc23)c(C)c1
reported_result: 1830

Now take the following molecule into account.
Req: What AUC(0-t) at 24 h value was documented for this molecule, Cc1ccc(-c2cc(=O)oc3cc(O[C@H](C)C(=O)N4CC5CCC(C4)N5)ccc23)c(C)c1 ?
Resp: 403

* * *

Recorded solubility by entry
test: Solubility in PBS at pH 7.4; type: physicochemical
Quick reminder: number only, in µg/mL, skip the unit.

query_smiles: Cc1ccc(-c2cc(=O)oc3cc(O[C@H](C)C(=O)N4CC5CCC(C4)N5C)ccc23)c(C)c1
quantity_kind: solubility
units_label: µg/mL
reported_result: 226

Now take the following molecule into account.
Req: What solubility value was documented for this molecule, C[C@@H](Oc1ccc2c(-c3ccc(F)cc3Cl)cc(=O)oc2c1)C(=O)N1CCC[C@H](C(=O)O)C1 ?
Resp: 6.49

* * *

experiment: Volume of distribution at steady state in ICR mouse at 1 mg/kg, iv measured upto 24 hrs by LC-MS/MS analysis; type: ADME, organism-based; conditions: in vivo, read-out: Vdss
quantity_kind: Vd (L/kg)
Quick reminder: number only, in L/kg, skip the unit.

query_smiles: Cc1ccc(-c2cc(=O)oc3cc(O[C@H](C)C(=O)N4CC5CCC(C4)N5C)ccc23)c(C)c1
quantity_kind: Vd
units_label: L/kg
reported_result: 6.4

Req: What Vd value was documented for this compound, Cc1ccc(-c2cc(=O)oc3cc(O[C@H](C)C(=O)N4CC5CCC(C4)N5)ccc23)c(C)c1 ?
Resp: 5.84

* * *

molecular target: Cytochrome P450 2C19 (Homo sapiens, UniProt P33261)
Sequence (P33261 whole entry): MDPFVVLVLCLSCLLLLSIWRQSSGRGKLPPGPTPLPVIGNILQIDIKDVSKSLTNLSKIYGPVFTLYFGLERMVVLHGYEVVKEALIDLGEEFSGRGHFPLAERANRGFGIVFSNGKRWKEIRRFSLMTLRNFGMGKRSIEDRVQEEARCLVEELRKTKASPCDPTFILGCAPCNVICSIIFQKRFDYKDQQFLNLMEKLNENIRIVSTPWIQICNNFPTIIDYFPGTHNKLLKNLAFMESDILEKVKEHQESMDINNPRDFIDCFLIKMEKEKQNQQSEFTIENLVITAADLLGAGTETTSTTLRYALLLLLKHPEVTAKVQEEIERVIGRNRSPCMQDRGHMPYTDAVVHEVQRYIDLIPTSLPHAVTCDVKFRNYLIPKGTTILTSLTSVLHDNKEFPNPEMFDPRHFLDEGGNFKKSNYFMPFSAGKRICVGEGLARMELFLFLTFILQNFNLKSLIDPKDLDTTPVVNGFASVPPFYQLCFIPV
quantity_kind: pIC50
Please keep in mind that pIC50 is minus log10 of the molar concentration; only the number is needed.

Req: What pIC50 value was documented for this compound, Cc1ccc(-c2cc(=O)oc3cc(O[C@H](C)C(=O)N4CC5CCC(C4)N5C)ccc23)c(C)c1 ?
Resp: 4.50

* * *

system: HepG2; assay: Antiproliferative activity against human HepG2 cells incubated for 168 hrs by SRB method; assay type: functional, cell-based; details: HepG2, 168 h
Recorded pIC50 by entry
Please keep in mind that pIC50 is minus log10 of the molar concentration; only the number is needed.

query_smiles: Cc1ccc(-c2cc(=O)oc3cc(O[C@H](C)C(=O)N4CC5CCC(C4)N5C)ccc23)c(C)c1
experimental_system: HepG2
pIC50: 6.82

Req: For HepG2, provide pIC50 of C[C@@H](Oc1ccc2c(-c3ccc(F)cc3Cl)cc(=O)oc2c1)C(=O)N1CCC[C@H](C(=O)O)C1 please.
Resp: 6.77

* * *

Recorded IC50 by entry
test system: NCI-H3122; experiment: Antiproliferative activity against human NCI-H3122 cells incubated for 168 hrs by SRB method; type: functional, cell-based; conditions: NCI-H3122, 168 h

Req: What IC50 value was documented for this molecule, Cc1ccc(-c2cc(=O)oc3cc(O[C@H](C)C(=O)N4CC5CCC(C4)N5C)ccc23)c(C)c1 ?
Resp: > 10 µM

Req: // next record C[C@@H](Oc1ccc2c(-c3ccc(F)cc3Cl)cc(=O)oc2c1)C(=O)N1CCC[C@H](C(=O)O)C1
Resp: > 10 µM

* * *

system: A2780; experiment: Antiproliferative activity against human A2780 cells incubated for 168 hrs by SRB method; type: functional, cell-based; settings: A2780, 168 h
pIC50: −log10 of the molar value.
Param threshold (7) applies to pIC50; output 1 (yes) when value >= threshold, 0 (no) when value < threshold.

molecule: C[C@@H](Oc1ccc(C(=O)c2ccc(F)cc2Cl)cc1)C(=O)N1CCC[C@H](C(=O)O)C1
assigned_category: 0 (no)

molecule: O=C(O)[C@H]1CCCN(C(=O)C(F)(F)Oc2ccc3c(-c4ccc(F)cc4Cl)cc(=O)oc3c2)C1
assigned_category: 0 (no)

molecule: C[C@@H](Oc1ccc2c(-c3ccc(F)cc3Cl)cc(=O)oc2c1)C(=O)NCCC1CCOCC1
assigned_category: 0 (no)

molecule: C[C@@H](Oc1ccc2c(-c3ccc(F)cc3Cl)cc(=O)oc2c1)C(=O)NCCN1CCOCC1
assigned_category: 0 (no)

Req: Exam item: decide whether the reported pIC50 for C[C@@H](Oc1ccc2c(-c3ccc(F)cc3Cl)ncnc2c1)C(=O)N1CCC[C@H](C(=O)O)C1 is at least 7.
Resp: 0 (no)

Req: // next record C[C@@H](Oc1ccc2c(-c3ccccc3)cc(=O)oc2c1)C(=O)N1CC2CCC(C1)N2
Resp: 0 (no)

* * *

experiment: AUC (0 to infinity) in ICR mouse at 10 mg/kg, po measured upto 24 hrs by LC-MS/MS analysis; type: ADME, organism-based; set-up: time < 24 hrs, dose 10 mg/kg, route po; settings: in vivo
quantity_kind: AUC(0-inf) (ng·h/mL)
Quick reminder: number only, in ng·h/mL, skip the unit.

Req: What AUC(0-inf) value was documented for this compound, Cc1ccc(-c2cc(=O)oc3cc(O[C@H](C)C(=O)N4CC5CCC(C4)N5C)ccc23)c(C)c1 ?
Resp: 1900

* * *

target: Cytochrome P450 2D6 (Homo sapiens, UniProt P10635)
Sequence (P10635 whole entry): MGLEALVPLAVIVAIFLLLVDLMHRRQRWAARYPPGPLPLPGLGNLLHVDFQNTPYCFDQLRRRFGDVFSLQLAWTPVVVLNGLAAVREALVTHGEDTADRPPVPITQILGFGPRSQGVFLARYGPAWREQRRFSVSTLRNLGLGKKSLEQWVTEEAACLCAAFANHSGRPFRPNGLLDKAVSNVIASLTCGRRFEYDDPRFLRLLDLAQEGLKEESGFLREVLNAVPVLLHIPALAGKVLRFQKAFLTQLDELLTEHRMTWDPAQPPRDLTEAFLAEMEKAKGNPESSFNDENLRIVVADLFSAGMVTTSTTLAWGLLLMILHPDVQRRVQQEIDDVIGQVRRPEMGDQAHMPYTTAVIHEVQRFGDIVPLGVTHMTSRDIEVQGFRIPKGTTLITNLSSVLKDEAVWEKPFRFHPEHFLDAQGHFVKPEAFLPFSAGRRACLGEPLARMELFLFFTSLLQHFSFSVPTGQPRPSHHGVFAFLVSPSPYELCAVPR
pIC50: −log10 of the molar value.
quantity_kind: pIC50

Req: What pIC50 value was documented for this molecule, Cc1ccc(-c2cc(=O)oc3cc(O[C@H](C)C(=O)N4CC5CCC(C4)N5C)ccc23)c(C)c1 ?
Resp: < 4.40

* * *

Recorded MRT by entry
test: MRT in ICR mouse at 1 mg/kg, iv measured upto 24 hrs by LC-MS/MS analysis; assay type: ADME, organism-based; settings: in vivo
Quick reminder: number only, in h, skip the unit.

query_smiles: Cc1ccc(-c2cc(=O)oc3cc(O[C@H](C)C(=O)N4CC5CCC(C4)N5)ccc23)c(C)c1
units_label: h
reported_result: 2.05

Now take the following compound into account.
Req: What MRT value was documented for this compound, Cc1ccc(-c2cc(=O)oc3cc(O[C@H](C)C(=O)N4CC5CCC(C4)N5C)ccc23)c(C)c1 ?
Resp: 2.66

* * *

assay: Inhibition of ND1 transcript level in human A2780 cells at 500 nM measured after 12 hrs by RT-qPCR analysis relative to control; assay type: functional
quantity_kind: inhibition at 0.5 µM (%)
Quick reminder: number only, in %, skip the unit.

query_smiles: Cc1ccc(-c2cc(=O)oc3cc(O[C@H](C)C(=O)N4CC5CCC(C4)N5)ccc23)c(Cl)c1
units_label: %
inhibition at 0.5 µM: 28
--
query_smiles: C[C@@H](Oc1ccc2c(-c3ccc(Cl)cc3Cl)cc(=O)oc2c1)C(=O)N1CC2CCC(C1)N2
units_label: %
inhibition at 0.5 µM: 24
--
query_smiles: Cc1ccc(-c2cc(=O)oc3cc(O[C@H](C)C(=O)N4CC5CCC(C4)N5)ccc23)cc1
units_label: %
inhibition at 0.5 µM: 11
--
query_smiles: C[C@@H](Oc1ccc2c(-c3ccc(F)cc3Cl)cc(=O)oc2c1)C(=O)Nc1ncco1
units_label: %
inhibition at 0.5 µM: 81
--
query_smiles: C[C@@H](Oc1ccc2c(-c3ccc(F)cc3Cl)cc(=O)oc2c1)C(=O)NCCCO
units_label: %
inhibition at 0.5 µM: 22
--
query_smiles: Cc1cc(Cl)ccc1-c1cc(=O)oc2cc(O[C@H](C)C(=O)N3CC4CCC(C3)N4)ccc12
units_label: %
inhibition at 0.5 µM: 12

Req: What inhibition at 0.5 µM value was documented for this compound, CC(=O)N1CCN(C(=O)[C@@H](C)Oc2ccc3c(-c4ccc(F)cc4Cl)cc(=O)oc3c2)CC1 ?
Resp: 27

Req: // next record C[C@@H](Oc1ccc2c(-c3ccc(F)cc3Cl)cc(=O)oc2c1)C(=O)N1CC2CC(C1)N2
Resp: 24

Req: // next record C[C@@H](Oc1cccc(-c2ccc(F)cc2Cl)c1)C(=O)N1CCC[C@H](C(=O)O)C1
Resp: 95

* * *

test: Inhibition of ND1 transcript level in human A2780 cells at 500 nM measured after 12 hrs by RT-qPCR analysis relative to control; format: functional
quantity_kind: inhibition at 0.5 µM (%)
Quick reminder: number only, in %, skip the unit.

query_smiles: C[C@@H](Oc1ccc2c(-c3ccc(F)cc3Cl)cccc2c1)C(=O)N1CCC[C@H](C(=O)O)C1
quantity_kind: inhibition at 0.5 µM
reported_result: 45

query_smiles: C[C@@H](Oc1ccc2c(-c3cccc4ccccc34)cc(=O)oc2c1)C(=O)N1CC2CCC(C1)N2
quantity_kind: inhibition at 0.5 µM
reported_result: 67

query_smiles: C[C@@H](Oc1ccc2c(-c3ccc(F)cc3Cl)cc(=O)oc2c1)C(=O)NCCN1CCS(=O)(=O)CC1
quantity_kind: inhibition at 0.5 µM
reported_result: 86

Req: What inhibition at 0.5 µM value was documented for this compound, Cc1cc(C)c(-c2cc(=O)oc3cc(O[C@H](C)C(=O)N4CC5CCC(C4)N5)ccc23)c(C)c1 ?
Resp: 16
